Measured Delta mean survival time, listed per entry for reference.
System: Plasmodium berghei
Assay: Antimalarial activity in Plasmodium berghei infected mice (Mus musculus) after 80 mg/kg subcutaneous dose
Format: functional
Attribute Measured: Delta mean survival time

[
  {
    "Molecule": "O=C1CC(c2cccc(C(F)(F)F)c2)Cc2c1c(=O)c1cc(Cl)ccc1n2O (centres undefined)",
    "Measurement Target": "Plasmodium berghei",
    "Recorded Number": 12.1
  },
  {
    "Molecule": "CN(C)c1ccc(C2CC(=O)c3c(n(O)c4ccc(Cl)cc4c3=O)C2)cc1 (centres undefined)",
    "Measurement Target": "Plasmodium berghei",
    "Recorded Number": 5.8
  },
  {
    "Molecule": "CCN(CC)CCC/N=C1\\CC(c2ccc(Cl)c(Cl)c2)Cc2c1c(=O)c1cc(Cl)ccc1n2O (centres undefined)",
    "Measurement Target": "Plasmodium berghei",
    "Recorded Number": 11.7
  },
  {
    "Molecule": "CN(C)CCC/N=C1\\CC(c2ccc(Cl)c(Cl)c2)Cc2c1c(=O)c1cc(Cl)ccc1n2O (centres undefined)",
    "Measurement Target": "Plasmodium berghei",
    "Recorded Number": 17.2
  },
  {
    "Molecule": "O=C1CC(c2ccccn2)Cc2nc3ccc(Cl)cc3c(O)c21 (centres undefined)",
    "Measurement Target": "Plasmodium berghei",
    "Recorded Number": 1.1
  },
  {
    "Molecule": "CN(C)CCC/N=C1\\CC(c2ccc(C(F)(F)F)cc2)Cc2nc3c(Cl)cc(Cl)cc3c(O)c21 (centres undefined)",
    "Measurement Target": "Plasmodium berghei",
    "Recorded Number": 8.2
  },
  {
    "Molecule": "CCN(CC)CC(C)(C)C/N=C1\\CC(c2ccc(C(F)(F)F)cc2)Cc2c1c(=O)c1cc(Cl)ccc1n2O (centres undefined)",
    "Measurement Target": "Plasmodium berghei",
    "Recorded Number": 12.5
  },
  {
    "Molecule": "CN(C)CCC/N=C1\\CC(c2ccccc2C(F)(F)F)Cc2c1c(=O)c1cc(Cl)ccc1n2O (centres undefined)",
    "Measurement Target": "Plasmodium berghei",
    "Recorded Number": 7.5
  },
  {
    "Molecule": "O=c1c2c(n(O)c3ccc(Cl)cc13)CC(c1ccc(Cl)c(Cl)c1)C/C2=N\\CCCNCCO (centres undefined)",
    "Measurement Target": "Plasmodium berghei",
    "Recorded Number": 7.9
  }
]
